tgt: XIAP BIR3 (Homo sapiens)
Construct: His-BIR3 (241-356, XIAP)
Sequence (P98170 241-356): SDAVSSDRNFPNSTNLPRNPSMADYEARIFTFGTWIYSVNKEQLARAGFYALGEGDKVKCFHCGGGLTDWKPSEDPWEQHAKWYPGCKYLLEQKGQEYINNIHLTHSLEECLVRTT
method_summary: XIAP-BIR3/SMAC Homogeneous Time Resolved Fluorescence (HTRF) Assay
Assay type: binding
assay_context: 1 nM N-His-BIR3 (241-356, XIAP), 5 nM fluorescein labeled SMAC peptide; HTRF signal; read-out: XIAP BIR3 IC50
Procedure: A. XIAP-BIR3/SMAC Homogeneous Time Resolved Fluorescence (HTRF) Assay Assays were performed in black, flat-bottom, 384-well plates. […] The reaction was incubated at room temperature for 60 minutes, following which 10 μl of mouse anti-6×His-terbium labeled Fab (Medarex, Cis-bio) was added to the reaction (40 μl) for an additional 30 minute incubation. […] Compounds were dissolved at 3 mM in dimethylsulfoxide (DMSO) and evaluated at eleven serially diluted concentrations. […]
pIC50: −log10 of the molar value. Where a name gives a salt, the structure may show the parent alone.
observed_property: pIC50

Illustrative cases are given below, each with its answer.
>  <compound>
CN[C@@H](C)C(=O)N[C@H](C(=O)N1Cc2cc([C@H]3C[C@@H](C(=O)N[C@@H]4CCCc5ccccc54)N(C(=O)[C@@H](NC(=O)[C@H](C)NC)C(C)(C)C)C3)ccc2C[C@H]1C(=O)Nc1cc(C)nn1-c1ccccc1)C(C)(C)C [Example 38]

>  <tgt>
XIAP BIR3 (Homo sapiens)

>  <observed_property>
pIC50

>  <endpoint_value>
8.49

$$$$
>  <compound>
CN[C@@H](C)C(=O)N[C@H](C(=O)N1CC(c2ccc3c(c2)CN(C(=O)[C@@H](NC(=O)[C@H](C)NC)C24CC5CC(CC(C5)C2)C4)[C@H](C(=O)NC2CCCc4ccccc42)C3)C[C@H]1C(=O)NC1CCCc2ccccc21)C(C)(C)C (stereo partly shown) [Example 87, TFA]

>  <tgt>
XIAP BIR3 (Homo sapiens)

>  <observed_property>
pIC50

>  <endpoint_value>
8.14

$$$$

P: CN[C@@H](C)C(=O)N[C@H](C(=O)N1CC(c2ccc3c(c2)CN(C(=O)[C@@H](NC(=O)[C@H](C)NC)C(C)(C)SCC(=O)O)[C@H](C(=O)NC2CCCc4ccccc42)C3)C[C@H]1C(=O)NC1CCCc2ccccc21)C(C)(C)C (stereo partly shown) [Example 32]
Q: CN[C@@H](C)C(=O)N[C@H](C(=O)N1C[C@@H](c2ccc3c(c2)CN(C(=O)[C@@H](NC(=O)[C@H](C)NC)C(C)(C)C)[C@H](C(=O)N[C@@H]2CCCc4ccccc42)C3)C[C@H]1C(=O)N[C@@H](Cc1ccccc1)C(=O)O)C(C)(C)C [Example 77]
Which one would you say has the larger pIC50 value: P , or Q ? Answer with the label corresponding to your selection.
Q
(Q: 8.77, P: 8.06)
